Reference source: patent US10925876B2

- SYSTEM_UNDER_TEST: sGC α1/β1 heterodimer (Homo sapiens, UniProt Q02108+Q02153)
- Construct: expressed in transfected cells
- Sequence (Q02108 1-690): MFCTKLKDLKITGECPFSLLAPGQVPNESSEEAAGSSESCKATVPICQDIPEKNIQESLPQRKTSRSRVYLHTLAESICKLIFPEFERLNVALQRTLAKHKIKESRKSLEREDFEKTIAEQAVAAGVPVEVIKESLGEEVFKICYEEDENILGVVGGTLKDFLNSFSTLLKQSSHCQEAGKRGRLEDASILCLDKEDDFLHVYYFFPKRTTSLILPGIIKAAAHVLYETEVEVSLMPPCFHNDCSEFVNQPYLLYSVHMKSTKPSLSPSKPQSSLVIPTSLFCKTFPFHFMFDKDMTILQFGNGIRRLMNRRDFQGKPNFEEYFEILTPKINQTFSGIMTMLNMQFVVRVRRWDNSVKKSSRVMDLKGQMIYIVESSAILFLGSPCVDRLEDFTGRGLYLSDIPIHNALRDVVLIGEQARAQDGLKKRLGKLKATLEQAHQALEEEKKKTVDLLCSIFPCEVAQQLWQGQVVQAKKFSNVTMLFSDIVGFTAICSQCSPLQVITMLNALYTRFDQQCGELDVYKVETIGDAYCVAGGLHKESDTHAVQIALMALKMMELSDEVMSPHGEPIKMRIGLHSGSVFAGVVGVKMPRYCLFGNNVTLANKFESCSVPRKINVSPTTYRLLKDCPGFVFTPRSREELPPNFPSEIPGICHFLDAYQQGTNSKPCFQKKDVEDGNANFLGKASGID
- Sequence (Q02153 1-619): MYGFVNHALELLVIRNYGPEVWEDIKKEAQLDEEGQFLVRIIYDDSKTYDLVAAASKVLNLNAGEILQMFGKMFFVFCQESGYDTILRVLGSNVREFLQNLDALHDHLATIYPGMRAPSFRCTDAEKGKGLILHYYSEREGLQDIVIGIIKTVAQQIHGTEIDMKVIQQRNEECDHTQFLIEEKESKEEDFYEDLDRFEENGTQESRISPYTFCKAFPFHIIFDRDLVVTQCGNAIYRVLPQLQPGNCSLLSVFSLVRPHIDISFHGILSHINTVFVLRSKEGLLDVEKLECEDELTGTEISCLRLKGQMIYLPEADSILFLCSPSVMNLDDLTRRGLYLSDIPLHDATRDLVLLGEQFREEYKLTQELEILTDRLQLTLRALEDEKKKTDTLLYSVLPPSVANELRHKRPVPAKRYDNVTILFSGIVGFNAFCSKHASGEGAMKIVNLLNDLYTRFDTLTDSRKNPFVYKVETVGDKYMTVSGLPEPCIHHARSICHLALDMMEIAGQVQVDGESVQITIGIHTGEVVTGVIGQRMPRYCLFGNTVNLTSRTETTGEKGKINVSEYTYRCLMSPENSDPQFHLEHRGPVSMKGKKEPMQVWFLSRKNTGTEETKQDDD
- ASSAY_SUMMARY: Cell-Based sGC Functional Assay (CASA Assay), cGMP generation in CHO-K1/sGC cells;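 further: reference Compound A is a published heme-dependent sGC activator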
- TEST_SETTINGS: maximum cGMP production of Compound A set to 100% activation, read-out: % Act. (percent activation relative to Compound A)
Exercise: for every item that follows, state its recorded Emax.
Numbers only, in %.

Look at this compound and give its reported Emax. CC1(c2ccc(C(F)(F)F)cn2)C(=O)Nc2nc(-c3cn4ncnc4c(CCCC(F)(F)F)n3)nc(C(N)=O)c21 (stereo not shown) [Example 179B]
101

Look at this compound and give its reported Emax. Nc1nc(-c2cn3ncnc3c(CCCC(F)(F)F)n2)nc2c1C(c1ccc(C(F)(F)F)cn1)(C1CC1)C(=O)N2 (single isomer, unassigned) [Example 2A]
111

Look at this compound and give its reported Emax. C[C@@]1(c2ccc(F)cc2)C(=O)Nc2nc(-c3cn4ncnc4c(CCCC(F)(F)F)n3)nc(O)c21 [Example 135A]
108

Look at this compound and give its reported Emax. CC1(c2ccc(Cl)cc2)C(=O)Nc2nc(-c3cn4ncnc4c(CCCC(F)(F)F)n3)nc(O)c21 (stereo not shown) [Example 142A]
137

Look at this compound and give its reported Emax. CC1(c2ccc(Cl)cn2)C(=O)Nc2nc(-c3cn4ncnc4c(CCC(F)(F)C(F)(F)F)n3)nc(N)c21 (stereo not shown) [Example 3A]
161

Batch request: Emax per item, same order as input.
1. Nc1nc(-c2cn3ncnc3c(CCCC(F)(F)F)n2)nc2c1C(c1nnc(C3CC3)o1)(C1CC1)C(=O)N2 (stereo not shown) [Example 104A]
2. CCCCc1nc(-c2nc(N)c3c(n2)NC(=O)C3(C)c2nnc(C(F)(F)F)o2)cn2ncnc12 (stereo not shown) [Example 102A]
3. Nc1nc(-c2cn3ncnc3c(CCC(F)(F)C(F)(F)F)n2)nc2c1C(c1ccc(F)c(F)c1)(C1CC1)C(=O)N2 (stereo not shown) [Example 6A]
4. CCCc1nc(-c2nc(N)c3c(n2)NC(=O)[C@@]3(C)c2ccc(F)cc2)cn2nc(C)nc12 [Example 91A]
5. Cc1ccc(C2(C)C(=O)Nc3nc(-c4cn5ncnc5c(CCCC(F)(F)F)n4)nc(O)c32)nc1 (stereo not shown) [Example 149B]

1. 117
2. 132
3. 140
4. 105
5. 63

Batch request: Emax per item, same order as input.
1. CCCCc1nc(-c2nc(N)c3c(n2)NC(=O)C3(c2ccc(C)cn2)C2CC2)cn2ncnc12 (racemic) [Example 72B]
2. CCCc1nc(-c2nc(O)c3c(n2)NC(=O)C3(C)c2ccc(Cl)cc2)cn2nc(C)nc12 (stereo not shown) [Example 168A]
3. CCCCc1nc(-c2nc(O)c3c(n2)NC(=O)C3(C)c2cccc(F)c2)cn2ncnc12 (stereo not shown) [Example 171A]
4. CC1(c2ccccc2)C(=O)Nc2nc(-c3cn4ncnc4c(CCC(F)(F)C(F)(F)F)n3)nc(N)c21 (stereo not shown) [Example 12B]

[82, 77, 90, 122]
